# Test system: RXF 393 renal
# Protocol Text: NCI tumour cell line growth inhibition, 48 h; in the data active means GI50 below about 0.43 µM; inactive means the rest
Labels: active, inactive

* Cn1cc(-c2nc(-c3c[nH]c4ccccc34)cs2)c2cccnc21 | active
* COc1ccc(C2CC(=O)Nc3c2c(C)nn3-c2nc3ccccc3[nH]2)cc1OC (centres undefined) | inactive
* COc1cc(-c2cc(-c3ccc(Nc4nc(Nc5ccc(Cl)cc5)nc(Nc5ccc(Cl)cc5)n4)cc3)no2)cc(OC)c1OC | inactive
* CN1c2cccc[c]2[Sn]([CH3])([CH3])[c]2ccccc21 | active

====

# System: SF-268 CNS
# Protocol Text: NCI tumour cell line growth inhibition, 48 h
The entries below are paired with their reported TGI.
Reported Property: TGI (µM)

- CCN1CCC(O)(/C=C/c2ccc(Cl)c(Cl)c2)C(C(=O)/C=C/c2ccc(Cl)c(Cl)c2)C1 (stereo not given): 2.54
- C=C1CC2(CC(c3ccccc3C)OC(c3ccccc3C)C2)OC1=O (stereo not given): 3.6
- Cc1ccc2c(c1)n([O-])c(C(F)(F)F)c(C(=O)c1ccco1)[n+]2=O: 2.48
- CC1(/C=C/c2ccc(-c3ccccc3)cc2)CCn2cnc3ncnc(c32)N1O (stereo not given): 15.8

====

# Test system: SK-OV-3 ovarian
# Protocol Text: NCI tumour cell line growth inhibition, 48 h
Reported Property: GI50

• Clc1ccc(Nc2nnc(COc3ccccc3)c3ccccc23)cc1 = 2.38 µM
• N/C(=N/O)NOCCC(N)C(=O)O (centres undefined) = > 100 µM
• COc1cc(/C=C/[N+](=O)[O-])cc(OC)c1 = 11.1 µM
• CC(=O)Nc1ccc2c(c1)[nH]c(=O)c1cc(NC(C)=O)ccc12 = > 100 µM

====

Items are presented alongside their recorded TGI.
# Test system: K-562 leukemia
# Protocol Text: NCI tumour cell line growth inhibition, 48 h
Reported Property: TGI

• O=C(/C=C/c1cc2ccccc2[nH]c1=O)c1ccc(O)cc1 = > 100 µM
• CCc1cc2c(cc1O)CC[C@@H]1[C@@H]2CC[C@]2(C)[C@@H](O)CC[C@@H]12 = 14.5 µM
• Nc1ccc2ncc(NCc3ccc(F)cc3)nc2c1 = > 100 µM
• Cc1cccc(N=Nc2ccc(O)c(CN(C)C)c2)c1 = 16.1 µM
• COC(=O)C1(N2CCOCC2)CCC([C@@H](c2ccccc2)C(C)[N+](=O)[O-])C1 (stereo partly specified) = > 100 µM
• OC[C@H](O)[C@@H](OCc1ccccc1)[C@H](NCc1ccccc1)c1cccs1 = > 100 µM
• Cn1c(SCc2ccc([N+](=O)[O-])cc2)nnc1C12CC3CC(CC(C3)C1)C2 = > 10 µM
• C/C(COc1ccccc1)=N\NC(N)=S = > 100 µM
• Clc1ccc(CCNCCNC2(c3cc4ccccc4s3)CCCCC2)cc1Cl = 4.52 µM
• CC(=O)Nc1ccc(S(=O)(=O)Nc2cnc3ccccc3n2)cc1 = > 100 µM
• O=[N+]([O-])c1cc(-c2ccc([As](=O)(O)O)cc2)ccc1[As](=O)(O)O = > 100 µM
• Cc1cc(NCCCCCCCCNc2cc(C)nc3cc(N(C)C)ccc23)c2ccc(N(C)C)cc2n1 = 28.5 µM
• N#Cc1ccccc1C#C/C=C\C#Cc1ccccn1 = > 100 µM
• O=C(Cn1cc(I)c(C(=O)NCC(O)CO)n1)NCC(O)CO (stereo unspecified) = > 100 µM
• Cc1ccc(O)c(C(=O)/C=C/c2ccccc2)c1 = > 100 µM
• CC1=NN(c2ccccc2)C(=O)C1N=Nc1ccc(Br)cc1C (stereo unspecified) = > 100 µM
• COc1ccc(-c2oc(C=Nc3ccccc3)c([N+](=O)[O-])c2-c2ccc(OC)c(OC)c2)cc1OC = > 100 µM
• COC1C[C@H](O[C@@H]2C[C@H](O[C@@H]3C[C@H](O[C@@H]4C(=O)c5c(cc6cc(O[C@H]7C[C@@H](O[C@H]8C[C@@H](O)[C@H](O)C(C)O8)[C@H](O)C(C)O7)c(C)c(O)c6c5O)C[C@H]4C(OC)C(=O)[C@@H](O)[C@@H](C)O)OC(C)[C@H]3O)OC(C)[C@@H]2O)OC(C)[C@@H]1O (stereo partly specified) = > 32.5 µM
• CC(C)C(C=O)C(O)(C(F)(F)F)C(F)(F)F (stereo unspecified) = > 100 µM
• CCCCCCCC(=O)[O-].N.N.N.N.N.[Co+3].[O-][Cl+3]([O-])([O-])[O-] = > 100 µM
• [N-]=[N+]=NCCCn1c2c(c3ccccc3c1=O)C(=O)c1cc3c(cc1-2)OCO3 = > 100 µM

====

# Test system: HOP-62 NSCLC
# Protocol Text: NCI tumour cell line growth inhibition, 48 h
Quick reference for TGI among some compounds
Reported Property: TGI (µM)

• COc1ccc(CNCCN2C(=O)c3ccc4c5c(ccc(c35)C2=O)C(=O)N(CCNCc2ccc(OC)c(OC)c2OC)C4=O)c(OC)c1OC = 1.08
• COc1cc(N2CCN(C(C)C)CC2)ccc1Nc1nc(Nc2ccc(F)cc2C(N)=O)c2cc[nH]c2n1 = 5.26
• Nc1ccc(Oc2ccc(C34CC5CC(C3)CC(c3ccc(Oc6ccc(N)c(O)c6)cc3)(C5)C4)cc2)cc1O = 12
• CCN1CCC(O)(/C=C/c2ccc(Cl)c(Cl)c2)C(C(=O)/C=C/c2ccc(Cl)c(Cl)c2)C1 (centres undefined) = 2.48
• COC(=O)/C(=C1\OC(=O)C(c2ccc(Cl)cc2)=C1O)c1ccc(Cl)cc1 = 41.4

====

# Test system: HT29 colon
# Protocol Text: NCI tumour cell line growth inhibition, 48 h
A collection of compounds and their measured TGI
Reported Property: TGI

- COc1ccc2c(c1)C(=O)CC(C(N)=O)C2 (stereo not given): > 100 µM
- CN(CCCNC(=O)c1[nH]nc2c1ccc1ccccc12)CCCNC(=O)c1[nH]nc2c1ccc1ccccc12: 34.6 µM
- CCC(/C(=N/NC(=O)C[N+](C)(C)C)c1ccccc1)C1OC(=O)c2ccccc21 (stereo not given): > 100 µM
- CC1O[C@@H]2CCCCC(=O)[C@]2(C)[C@H]1C (stereo not given in full): > 100 µM
- COc1cc2cc(C(=O)Nc3ccccc3)c(N)nc2cc1OC: > 100 µM
- CCN(CC)CCNC(=O)C1COc2ccc(-c3cc(=O)c4ccccc4o3)cc2O1 (stereo not given): 34.6 µM
- COc1cc(/C=[N+](\[O-])c2ccccc2Cl)ccc1OC(=S)S: > 100 µM
- CC(=O)Nc1ccc2c(c1)[nH]c(=O)c1cc(NC(C)=O)ccc12: > 100 µM
- CCN1CC2(CO)CCC(OC)C34C5CC6C(OC)CC(O)(C5C6OC)C(O)(C(OC)C23)C14 (stereo not given): > 375 µM
- NC1=NN(c2ccccc2)C(=O)C1/C(=N\NC(=O)c1cc2ccccc2cc1O)C(=O)Nc1ccc(Cl)c(Cl)c1 (stereo not given): > 100 µM

====

# System: HT29 colon
# Protocol Text: NCI tumour cell line growth inhibition, 48 h
Listed here are molecules together with their documented GI50.
Reported Property: GI50

* O=C(Nc1c(Cl)cccc1Cl)Oc1cccc2cccnc12 | 19.4 µM
* COc1cccc(/C=C/C(=O)c2cc3c(N)c(C(=O)Nc4ccccc4)sc3nc2C)c1 | 1.21 µM
* CN1CCN(CCCn2c3c(sc4ncccc43)c(=O)n3nnc(-c4ccccc4)c23)CC1 | 1.82 µM
* CCN(Cc1c(F)cccc1C(F)(F)F)c1ccc(CO)c(Cl)c1 | 2.99 µM
* O=C(/C=C/c1cc2ccccc2[nH]c1=O)c1ccc(O)cc1 | 3.61 µM
* Nc1nc(N)c2c(n1)NC(c1ccc(Cl)cc1)C1CCc3ccccc3C1=N2 (stereo not drawn) | 4.31 µM
* Cc1ccccc1N=C(c1ccccc1)C1C(=O)c2ccccc2C1=O | 13.7 µM
* Cc1cc(C2CC(O)C(CO)O2)c(Br)cc1Br (stereo not drawn) | 99.1 µM
* Cc1cccc(Nc2ncc(-c3ccccc3)o2)c1 | > 25 µM
* O=C(Nc1cccc(Cl)c1)Nc1cc(C(F)(F)F)ccc1Cl | 3.03 µM
* CCCCCCCC(=O)[O-].N.N.N.N.N.[Co+3].[O-][Cl+3]([O-])([O-])[O-] | > 100 µM
* c1ccc(OCC[P+](c2ccccc2)(c2ccccc2)c2ccccc2)cc1 | 0.308 µM
* Cn1cc(-c2nc(-c3c[nH]c4ccccc34)cs2)c2cccnc21 | 0.166 µM

====

# System: U251 CNS
# Protocol Text: NCI tumour cell line growth inhibition, 48 h
Catalogue of molecules with associated TGI
Reported Property: TGI

- O=c1oc2c(Cl)cc(Cl)cc2cc1-c1cn2c(n1)sc1ccccc12: > 100 µM
- CC1NCCC(CC(=O)O)C1CC(=O)O (stereo unspecified): > 100 µM
- CN(CCCNC(=O)c1[nH]nc2c1ccc1ccccc12)CCCNC(=O)c1[nH]nc2c1ccc1ccccc12: 28.4 µM
- COc1cc(/C=[N+](\[O-])c2ccccc2Cl)ccc1OC(=S)S: > 100 µM
- Nc1nc(Cl)cc(OCC2(CO)CCCCC2)n1: > 100 µM
- COc1ccc(N2CCN(c3nc(-c4ccccn4)nc4sc5c(c34)CCCCCC5)CC2)cc1: > 100 µM
- Cc1ccc(O)c(C(=O)/C=C/c2ccccc2)c1: > 100 µM
- O=C(O)Cn1cnc2c(=O)[nH]c(Nc3ccccc3)nc21: > 100 µM
- O=C1NC(=O)/C(=C/c2ccc3nccc(-c4ccncc4)c3c2)S1: 2.23 µM
- Cn1cnc([N+](=O)[O-])c1Sc1nnc(-c2ccc(Cl)cc2)n1C: 30.4 µM
- OC(CBr)C(O)C(O)C(O)CBr (stereo unspecified): > 100 µM
